Source listed as ChEMBL document CHEMBL4330114.

- Test protocol: Aqueous solubility of the compound in phosphate buffer of pH 7.4 after overnight incubation by HPLC-UV analysis
- Type: physicochemical

[
  {
    "Test smiles": "Cn1c(Cn2ccc(C(F)(F)F)c(Oc3cc(Cl)cc(C#N)c3)c2=O)nn(COP(=O)(O)O)c1=O",
    "solubility": "5190 µg/mL"
  },
  {
    "Test smiles": "CC(C)OC(=O)OCn1nc(Cn2ccc(C(F)(F)F)c(Oc3cc(Cl)cc(C#N)c3)c2=O)n(C)c1=O",
    "solubility": "29 µg/mL"
  }
]

====

- Test protocol: Half life of the compound in phosphate buffer of pH 2.0 by HPLC-UV analysis
- Assay type: physicochemical
Metric name: half-life

[
  {
    "Test smiles": "Cn1c(Cn2ccc(C(F)(F)F)c(Oc3cc(Cl)cc(C#N)c3)c2=O)nn(COP(=O)(O)O)c1=O",
    "Metric name": "half-life",
    "Result": "> 1440 min"
  }
]

====

- Test protocol: Half life of the compound in phosphate buffer of pH 7.4 by HPLC-UV analysis
- Assay type: physicochemical

[
  {
    "Test smiles": "Cn1c(Cn2ccc(C(F)(F)F)c(Oc3cc(Cl)cc(C#N)c3)c2=O)nn(COP(=O)(O)O)c1=O",
    "half-life": "> 24 h"
  }
]

====

- Test protocol: Selectivity index, ratio of CC50 for mock-infected human MT4 cells to EC50 for wild type HIV1 3B infected in human MT4 cells
- Type: toxicity, cell-based
- Experimental setup: read-out: Selectivity Index

[
  {
    "Test smiles": "N#Cc1cc(Cl)cc(Oc2c(C(F)(F)F)ccn(CC(=O)Nc3cccnc3)c2=O)c1",
    "selectivity ratio": "< 1"
  },
  {
    "Test smiles": "Nc1ccn([C@@H]2CS[C@H](CO)O2)c(=O)n1",
    "selectivity ratio": "> 7"
  },
  {
    "Test smiles": "N#Cc1cc(Cl)cc(Oc2c(C(F)(F)F)ccn(CC(=O)Nc3cn[nH]c3)c2=O)c1",
    "selectivity ratio": 775
  },
  {
    "Test smiles": "N#Cc1cc(Cl)cc(Oc2c(C(F)(F)F)ccn(CC(=O)Nc3ccc(Br)cc3)c2=O)c1",
    "selectivity ratio": "< 1"
  },
  {
    "Test smiles": "N#Cc1cc(Cl)cc(Oc2c(C(F)(F)F)ccn(CC(=O)Nc3ccc(F)cc3)c2=O)c1",
    "selectivity ratio": "> 1"
  },
  {
    "Test smiles": "N#Cc1cc(Cl)cc(Oc2c(C(F)(F)F)ccn(CC(=O)Nc3cnccn3)c2=O)c1",
    "selectivity ratio": "≥ 6"
  },
  {
    "Test smiles": "Cn1c(Cn2ccc(C(F)(F)F)c(Oc3cc(Cl)cc(C#N)c3)c2=O)nn(COP(=O)(O)O)c1=O",
    "selectivity ratio": "> 893"
  },
  {
    "Test smiles": "N#Cc1cc(Cl)cc(Oc2c(C(F)(F)F)ccn(CC(=O)Nc3ccn[nH]3)c2=O)c1",
    "selectivity ratio": "≥ 7"
  },
  {
    "Test smiles": "N#Cc1cc(Cl)cc(Oc2c(C(F)(F)F)ccn(CC(=O)Nc3ncn[nH]3)c2=O)c1",
    "selectivity ratio": "> 5200"
  }
]

====

- Test protocol: Cytotoxicity against mock-infected human MT4 cells assessed as reduction in cell viability after 5 days by MTT assay
- Format: cell-based
A collection of compounds and their measured CC50 at 120 h
Metric name: CC50 at 120 h

[
  {
    "Test smiles": "CC(C)OC(=O)OCn1nc(Cn2ccc(C(F)(F)F)c(Oc3cc(Cl)cc(C#N)c3)c2=O)n(C)c1=O",
    "Metric name": "CC50 at 120 h",
    "Result": "> 231 µM"
  },
  {
    "Test smiles": "Cn1c(Cn2ccc(C(F)(F)F)c(Oc3cc(Cl)cc(C#N)c3)c2=O)nn(COP(=O)(O)O)c1=O",
    "Metric name": "CC50 at 120 h",
    "Result": "> 234 µM"
  },
  {
    "Test smiles": "N#Cc1cc(Cl)cc(Oc2c(C(F)(F)F)ccn(CC(=O)Nc3cn[nH]c3)c2=O)c1",
    "Metric name": "CC50 at 120 h",
    "Result": "46.1 µM"
  },
  {
    "Test smiles": "Cn1c(Cn2ccc(C(F)(F)F)c(Oc3cc(Cl)cc(C#N)c3)c2=O)n[nH]c1=O",
    "Metric name": "CC50 at 120 h",
    "Result": "> 294 µM"
  },
  {
    "Test smiles": "O=C1Nc2ccc(Cl)cc2[C@@](C#CC2CC2)(C(F)(F)F)O1",
    "Metric name": "CC50 at 120 h",
    "Result": "> 3.16 µM"
  },
  {
    "Test smiles": "N#Cc1cc(Cl)cc(Oc2c(C(F)(F)F)ccn(CC(=O)Nc3cccnc3)c2=O)c1",
    "Metric name": "CC50 at 120 h",
    "Result": "111 µM"
  },
  {
    "Test smiles": "N#Cc1cc(Cl)cc(Oc2c(C(F)(F)F)ccn(CC(=O)Nc3ccc(F)cc3)c2=O)c1",
    "Metric name": "CC50 at 120 h",
    "Result": "> 269 µM"
  },
  {
    "Test smiles": "N#Cc1cc(Cl)cc(Oc2c(C(F)(F)F)ccn(CC(=O)Nc3ncn[nH]3)c2=O)c1",
    "Metric name": "CC50 at 120 h",
    "Result": "> 285 µM"
  },
  {
    "Test smiles": "N#Cc1cc(Cl)cc(Oc2c(C(F)(F)F)ccn(CC(=O)Nc3ccc(Br)cc3)c2=O)c1",
    "Metric name": "CC50 at 120 h",
    "Result": "87.9 µM"
  },
  {
    "Test smiles": "N#Cc1cc(Cl)cc(Oc2c(C(F)(F)F)ccn(CC(=O)Nc3ccc(C(F)(F)F)cc3)c2=O)c1",
    "Metric name": "CC50 at 120 h",
    "Result": "82.3 µM"
  },
  {
    "Test smiles": "Nc1ccn([C@@H]2CS[C@H](CO)O2)c(=O)n1",
    "Metric name": "CC50 at 120 h",
    "Result": "> 87.3 µM"
  }
]

====

- Test protocol: Solubility of the compound
- Assay type: physicochemical
Metric name: solubility

[
  {
    "Compound": "Cc1cc(C#N)cc(C)c1Oc1nc(Nc2ccc(C#N)cc2)nc(N)c1Br [ETRAVIRINE]",
    "Result": "< 1 µg/mL"
  }
]

====

- Test protocol: Selectivity index, ratio of CC50 for mock-infected human MT4 cells to EC50 for HIV2 ROD infected in human MT4 cells
- Type: toxicity, cell-based
- Experimental setup: read-out: Selectivity Index

[
  {
    "Test smiles": "N#Cc1cc(Cl)cc(Oc2c(C(F)(F)F)ccn(CC(=O)Nc3cn[nH]c3)c2=O)c1",
    "selectivity ratio": "≤ 1"
  },
  {
    "Test smiles": "CS(=O)(=O)c1ccc(NC(=O)Cn2ccc(C(F)(F)F)c(Oc3cc(Cl)cc(C#N)c3)c2=O)cc1",
    "selectivity ratio": "< 1"
  },
  {
    "Test smiles": "N#Cc1cc(Cl)cc(Oc2c(C(F)(F)F)ccn(CC(=O)Nc3ccc([N+](=O)[O-])cc3)c2=O)c1",
    "selectivity ratio": "> 2"
  },
  {
    "Test smiles": "N#Cc1cc(Cl)cc(Oc2c(C(F)(F)F)ccn(CC(=O)Nc3ccc(Br)cc3)c2=O)c1",
    "selectivity ratio": "< 1"
  },
  {
    "Test smiles": "N#Cc1cc(Cl)cc(Oc2c(C(F)(F)F)ccn(CC(=O)Nc3ccc(C(F)(F)F)cc3)c2=O)c1",
    "selectivity ratio": "< 1"
  },
  {
    "Test smiles": "N#Cc1cc(Cl)cc(Oc2c(C(F)(F)F)ccn(CC(=O)Nc3ccn[nH]3)c2=O)c1",
    "selectivity ratio": 1
  },
  {
    "Test smiles": "N#Cc1cc(Cl)cc(Oc2c(C(F)(F)F)ccn(CC(=O)Nc3ccc(F)cc3)c2=O)c1",
    "selectivity ratio": 1
  },
  {
    "Test smiles": "N#Cc1cc(Cl)cc(Oc2c(C(F)(F)F)ccn(CC(=O)Nc3ncn[nH]3)c2=O)c1",
    "selectivity ratio": "> 2"
  },
  {
    "Test smiles": "CC(C)OC(=O)OCn1nc(Cn2ccc(C(F)(F)F)c(Oc3cc(Cl)cc(C#N)c3)c2=O)n(C)c1=O",
    "selectivity ratio": "> 2"
  },
  {
    "Test smiles": "N#Cc1cc(Cl)cc(Oc2c(C(F)(F)F)ccn(CC(=O)Nc3cccnc3)c2=O)c1",
    "selectivity ratio": "< 1"
  },
  {
    "Test smiles": "Cn1c(Cn2ccc(C(F)(F)F)c(Oc3cc(Cl)cc(C#N)c3)c2=O)nn(COP(=O)(O)O)c1=O",
    "selectivity ratio": 1
  },
  {
    "Test smiles": "N#Cc1cc(Cl)cc(Oc2c(C(F)(F)F)ccn(CC(=O)Nc3cnccn3)c2=O)c1",
    "selectivity ratio": 1
  },
  {
    "Test smiles": "N#Cc1cc(Cl)cc(Oc2c(C(F)(F)F)ccn(CC(=O)Nc3ccncc3)c2=O)c1",
    "selectivity ratio": "< 1"
  }
]
